ASSAY SUMMARY: in vivo
SETUP CONDITIONS: mouse, ip, 10 mg/kg
READOUT TYPE: AUC at 6 h (µM·h)
Please respond with the number in µM·h and leave the unit unwritten.

Ask | Entry "O=C(NCCN1CCC2(CC1)C(=O)NCN2c1cccc(F)c1)c1ccc(F)c(F)c1" : reported AUC at 6 h = ?
Reply | 1.55
